# measurement-protocol: soluble on expression in E. coli; label from the status in PepcDB or PDB records
experimental-endpoint: soluble on expression in E. coli

record_sequence=MQKRVKEGPFTTEWIDLYLEEAVRKGIKEVGIVDHLYRFHEAKGYYEKYVDISDSKLGRIQKEWLDQVKVVSLYDFTKAIEEAKERWGKRGVTLKLGIEADYFIGCEGELKELLALGDFDYVIGSVHFLNGWGFDNPDTKEYFEVHDLRALYDMFFKTVESAIRTELFDIIAHLDNIKVFNYRLDENEQLSYYEEIACALVETNTATEINAGLYYRYPVREMCPSPLYLQVLAKYGVPITISSDAHYPNDLGNYVQENIQTLRAHGVTQVATFTKRARVMRSLEEEVTNSK experimental_endpoint="soluble on expression in E. coli" value_reported="not soluble"
record_sequence=MAHHHHHHMEVEGTKERARGVTTFTRADLELREAAEDHRALLAEPWASHALRKGYSGREEHTKWITETWEAFERRKEDQKLYLERHDLCLQYKAAQLSETRRLSEQKSAALVEKMMALEAARKGALLQSRHFLFVDYYDYQQFLFRNQRSFVEDEEKLLRCKLSETEDDLMCLLVIQWHLSSHLHAAREKERVEEEAAAERLREFQYRQKLEEERLREEQRIAQEKEASQAEKEQAELEKRLERKRRDAERRAKVRAEREQRRAQE experimental_endpoint="soluble on expression in E. coli" value_reported="not soluble"
